# IC50, p42/Erk2: p42 values compiled below
- assayedSystem: platelet derived growth factor PDGF-BB (UniProt P01127 82-190)
- Sequence (P01127 82-190 limits assumed): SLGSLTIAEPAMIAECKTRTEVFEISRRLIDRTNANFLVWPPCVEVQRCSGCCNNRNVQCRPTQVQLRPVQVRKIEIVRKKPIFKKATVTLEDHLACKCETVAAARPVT
- test: cell-based or functional assay
Positions of bridges follow the written chain, without caps; N, C: chain ends. No end group written: not given here.
Report only the number, with the unit µM understood.

Below are worked cases with known answers.
GFB-135 (designed binder, also: 3 GDGY loops and 1 GDDD loop on But-Calix scaffold, linker to a chain's N/C-terminus via 3-aminomethyl-5-aminobenzamide) peptide 1: GDGY peptide 2: GDDD ... 3.2
GDGY (designed binder, linker N-C via 3‑aminomethyl‑5‑aminobenzamide; also: 3 GDGY loops on But-Calix scaffold, CO2H at fourth position) [GFB-133] ... 3.2
GFB-132 (designed binder, also: 3 GDGY loops and 1 GDDG loop on But-Calix scaffold, linker to a chain's N/C-terminus via 3-aminomethyl-5-aminobenzamide) peptide 1: GDGY peptide 2: GDDG ... 2.9

So what does the record say about IC50, p42/Erk2: p42 for GFB-136 (designed binder, also: 3 GDDD loops and 1 GDGY loop on But-Calix scaffold, linker to a chain's N/C-terminus via 3-aminomethyl-5-aminobenzamide) peptide 1: GDDD peptide 2: GDGY ?
25

Entry GFB-137 (designed binder, not fully specified; also: linker to a chain's N/C-terminus via 3-aminomethyl-5-aminobenzamide) peptide 1: GDGY peptide 2: GDDG has what IC50, p42/Erk2: p42?
2.9

Would you mind telling me what IC50, p42/Erk2: p42 value was observed for GFB-134 (designed binder, also: 3 GDGY loops and 1 GDDY loop on But-Calix scaffold, linker to a chain's N/C-terminus via 3-aminomethyl-5-aminobenzamide) peptide 1: GDGY peptide 2: GDDY ?
2.5
